# STATED_CONDITIONS: Liquid; Capillary flow
Below, each entry is listed with its recorded Critical pressure.
# value in kPa; strip the unit string

Prompt: Request the reported Critical pressure associated with C=C(C)C(=O)OCCCC [butyl 2-methyl-2-propenoate]
Completion: 2520

Prompt: Please give the measured Critical pressure for this compound: Cn1cccc1
Completion: 4210

Prompt: // Critical pressure lookup, key: CC(C)C=O
Completion: 4210

Prompt: Consider the compound shown here: C=C(C)OC(C)=O [1-methylvinyl ethanoate] What is its recorded Critical pressure?
Completion: 3630

Prompt: May I ask what Critical pressure has been recorded for CCOCCO ?
Completion: 4200

Further cases:
Prompt: Which Critical pressure reading was recorded for the compound CC(C)C(O)C(C)(C)CO (stereo not drawn) ?
Completion: 3110

Prompt: May I ask what Critical pressure has been recorded for COCCOCCOCCOC ?
Completion: 2310

Prompt: Param item = COCOC ; retrieve measured Critical pressure.
Completion: 4550

Prompt: Would you mind telling me what Critical pressure value was observed for COC(=O)CC(C)=O [methyl 3-oxobutanoate] ?
Completion: 3830
